I'd be grateful if you could share measured GI50 for these entries.
Tested on: BT-549
Test: NCI tumour cell line growth inhibition, 48 h
Active and inactive are the calls of the source. Cut-off read from the data, not from the text of the source: active = GI50 up to about 1.1 µM and inactive = higher.

For every listed record, write down its GI50.
1. O=C1c2ccccc2C(=O)c2cc(/N=N/c3c(O)ccc4ccccc34)ccc21
2. CN(C)c1ccc2c3c(c(=O)oc2c1)CCC3
3. COc1cc(C2C(C#N)=C(N)OC3=C2CCS(=O)(=O)c2ccc(C)cc23)cc(OC)c1OC (stereo unspecified)

> 100 µM (inactive)
> 100 µM (inactive)
> 100 µM (inactive)

* * *

System: SW-620
Experiment: NCI tumour cell line growth inhibition, 48 h
Calls of active or inactive are those of the source. Cut-off read from the data, not from the text of the source: active = GI50 up to about 1.1 µM and inactive = higher.
Can you tell me GI50 for the items I'm about to list?

Worked cases, answers included:
Cc1cc(O)nc(NN2C(Cl)C(=O)C2c2cccc([N+](=O)[O-])c2)n1 (stereo not given) | 35.1 µM (inactive)
CCC12CCCN(Cc3ccccc3)C1c1c(n(C)c3ccccc13)CC2 (stereo not given) | 178 µM (inactive)
COc1ccccc1-c1nc(O)c2ccccc2n1 | > 100 µM (inactive)

Items follow; give GI50 for each.
1. COc1cc(N(CCC#N)CCC#N)ccc1C(/N=N/c1ccccc1C)=N\NC(=O)c1ccc(C)cc1
2. CC1C(c2ccc(Cl)cc2)c2cc3c(cc2OC1N1CCOCC1)OCO3 (stereo not given)

72.9 µM (inactive)
> 100 µM (inactive)

* * *

System: LOX IMVI
Assay: NCI tumour cell line growth inhibition, 48 h
Calls of active or inactive are those of the source. Rule as the data show it: active = GI50 up to about 1.1 µM and inactive = higher.
PARAMETER: GI50

CCOC(=O)c1nc2ccc(C(F)(F)F)cc2nc1NCc1ccc(Cl)c(Cl)c1 | 30.8 µM (inactive)
Cn1c(S)nc2c(Cl)cc(Cl)cc2c1=O | > 100 µM (inactive)
Cc1ccc(-n2cnc3c(N)nc(N)nc32)cc1 | > 100 µM (inactive)

Hey, can you go through the list below and give me GI50 for every item?
1. CC1(C)C2CCC3(OCCO3)C1C1OC12 (configuration not stated)
2. Cc1ccc2c(=O)c(C(=O)Nn3c(C)csc3=S)c[nH]c2n1
3. O=c1[nH]cc(/C=N\Nc2ccccc2)c(=O)[nH]1
4. Cc1cc(NS(=O)(=O)c2ccc(Nc3c4ccccc4nc4c(C(=O)NCCO)cccc34)cc2)no1
5. CC(=O)c1nccc2c1c(C)nc1ccccc12
6. CCCSc1nc(COC(=O)NC)c(COC(=O)NC)n1C

> 100 µM (inactive)
> 100 µM (inactive)
6.14 µM (inactive)
27.6 µM (inactive)
57 µM (inactive)
> 100 µM (inactive)

* * *

System: SNB-75
Assay: NCI tumour cell line growth inhibition, 48 h
The source made the active and inactive calls. Rule as the data show it: active = GI50 up to about 1.1 µM and inactive = higher.
// classify into True = active, False = inactive

Worked examples, 2 compounds total:
COc1cccc(/C=C\c2cc(OC)c(OC)c(OC)c2)c1 | True
Cc1cccc(N/C(Sc2ccccc2)=C(/C(Cl)=C(Cl)Cl)[N+](=O)[O-])c1 | False

Hi, do you know how CCOC(=O)c1ccc(C(=O)C(C(C)=O)C(=O)OC(C)(C)C)[nH]1 (stereo not given) came out in this test?
False

Record lookup: outcome of this test for `Cc1cc(S(=O)(=O)Nc2nncn2-c2ccc(Cl)cc2)c(S)cc1Cl` ?
False

How did this test come out for Nc1ccn(C2OC(COC(=O)C34CC5CC(CC(C5)C3)C4)C(O)C2O)c(=O)n1 (stereo not given) ?
False

* * *

System: SN12C
Experiment: NCI tumour cell line growth inhibition, 48 h
Activity calls are given as the source filed them. No stated cut-off is given here; in the data, active = GI50 up to about 1.1 µM and inactive = higher.
PARAMETER: GI50

Example entries begin here.
O=C(c1cccs1)N(C(=S)N1CCN(c2ccccc2)CC1)c1ccccc1 | > 100 µM (inactive)
O=C1OCc2c1cc1ccc(O)c(OC3OC(CO)C(O)C(O)C3O)c1c2-c1ccc2c(c1)OCO2 (stereo unspecified) | 89.3 µM (inactive)
CN(C)C(=S)N=C(Nc1ccccc1)Nc1ccccc1 | > 100 µM (inactive)
C[C@@H](CO)C1=C(O)C(=O)c2c(ccc3c2CCCC3(C)C)C1=O | 54.8 µM (inactive)
c1cc2n(n1)CCN2 | 1240 µM (inactive)

Now look at this one.
Look up GI50 for this compound: `COc1ccc(/C=C(\C#N)c2nc(-c3cc4ccccc4oc3=O)cs2)cc1`
23.8 µM (inactive)

* * *

Test system: UACC-257
Test: NCI tumour cell line growth inhibition, 48 h
The source made the active and inactive calls. No stated cut-off is given here; in the data, active = GI50 up to about 1.1 µM and inactive = higher.
So I've got a bunch of compounds here, and I need their GI50 values.

Cc1c2cc[n+](C)cc2c(C)c2c1[nH]c1ccc(Cl)cc12 | 8.38 µM (inactive)

Give GI50 for each of the items listed below.
1. Cc1ccc(Nc2nnc(-c3ccc4c(c3)OCO4)o2)c(C)c1
2. COC1=CC(=O)NCCN1
3. CCC(=O)OC1CCn2c1nc1c2C(=O)C(C)=C(NC(C)=O)C1=O (stereo unspecified)
4. CN(Cc1ccccc1)c1cc(=O)n(C)c(=O)[nH]1
5. O=C(CC(=O)Nc1ccc(C(=O)O)cc1)Nc1ccc(C(=O)O)cc1
6. O=C1/C(=C/c2cccs2)N=C(c2ccccc2)N1C1Nc2cc3c(cc2S1)NC(N1C(=O)/C(=C/c2cccs2)N=C1c1ccccc1)S3 (stereo unspecified)
7. O=C1c2cccc(NCCCNCCO)c2C(=O)c2cccc(NCCCNCCO)c21
8. Cc1cccc(/C=N/NC(=S)N(C)CCc2ccccn2)n1

> 100 µM (inactive)
> 100 µM (inactive)
1.69 µM (inactive)
> 100 µM (inactive)
> 100 µM (inactive)
71.9 µM (inactive)
3.56 µM (inactive)
0.448 µM (active)

# return GI50 for each item in the list
1. COc1ccc(/C=C(\C#N)c2nc(-c3cc4ccccc4oc3=O)cs2)cc1
2. CCOP(=O)(OCC)/C(C#N)=C/c1cc(O)ccc1O

["31.8 µM (inactive)", "> 100 µM (inactive)"]

* * *

Tested on: HOP-62
Assay: NCI tumour cell line growth inhibition, 48 h
Active and inactive are the calls of the source. Cut-off read from the data, not from the text of the source: active = GI50 up to about 1.1 µM and inactive = higher. Starred links: 1 amine or outer side, 2 acyl side, 3 side chain; linkers in the order of their positions; H or OH if unused. Positions of bridges follow the written chain, without caps; N, C: chain ends. Non-standard residues stand in square brackets, D forms with d. Residues, ends and D or L forms follow the SMILES beside them. ξ: configuration not given here. X11 = CCC(C)C(N[*:1])C(O)CC(=O)O[C@H](C(=O)C(C)C(=O)[*:2])C(C)C; X10 = O=C([C@@H]1CC(O)CN1[*:1])[*:2]; NMeY = CN[C@@H](Cc1ccc(O)cc1)C(=O)O; ξNMeL = CNC(CC(C)C)C(=O)O; ξT = CC(O)C(N)C(=O)O
In this exercise, the only acceptable responses are active, inactive

// known answers, use as guide
CNn1c(C)n[nH]c1=O | inactive
CC(C)N1CCN(c2ccncc2S(=O)(=O)N2CCCCC2)CC1 | inactive
CC1=C(O)C(=O)C=C2C1=CC=C1[C@@]2(C)CC[C@@]2(C)C3C[C@@H](C)C(=O)[C@@H](O)[C@]3(C)CC[C@]12C (stereo not given in full) | inactive
O=c1[nH]c2cc(C(F)(F)F)ccc2nc1C(F)(F)F | inactive
CCCCCCNC(=O)C1=C(C)NC(C)=C(C(=O)NCCCCCC)C1 | inactive

How was `O=S1(=O)CCN(c2ccccc2CC(c2c[nH]c3ccccc23)c2c[nH]c3ccccc23)CC1` classified in this test?
inactive

What did this assay record as the result for `Cc1ccc(NC(=O)c2cc3cc(/N=N/c4ccc(Br)cc4)ccc3oc2=O)cc1` ?
inactive

Hi team, can someone confirm the assay call for `CCOCN1COCN/C1=N/C#N` ?
inactive

Hey, what did the test say about `COc1ccccc1-c1nc(O)c2ccccc2n1` ?
inactive

Recorded test outcome, item `COC(=O)[C@@]1(Cc2ccc(OC(C)=O)cc2)Cc2cc3ccccc3n2N1`
inactive

Tell me the assay call for CC(NC(=O)c1ccc(OP(=O)(OCC2=CC(=O)c3ccccc3C2=O)N(C)CCCCCl)cc1)c1ccc(OCC2CCCCC2)c(C(N)=O)c1 (stereo not given) please.
inactive

Record request — test call for CCC(C)C1NC(=O)C(NC(=O)C(CC(C)C)N(C)C(=O)[C@@H]2CC(O)CN2)C(C)OC(=O)[C@H](Cc2ccc(OC)cc2)N(C)C(=O)[C@@H]2CCCN2C(=O)[C@H](CC(C)C)NC(=O)C(C)C(=O)[C@H](C(C)C)OC(=O)CC1O (stereo not given in full) (H-[X10][ξNMeL][ξT][X11]LP[NMeY](Me); ester 3-C)
active

Identify the outcome logged in this assay for the compound shown: CC(=O)Oc1ccc2c(c1)CC[C@@H]1C2[C@@H](O[N+](=O)[O-])C[C@@]2(C)C1CC[C@@H]2O (stereo not given in full)
inactive

Record lookup: outcome of this test for COc1cc2c(cc1O)CC[C@@H]1C2CC[C@@]2(C)C1CC[C@@H]2O (stereo not given in full) ?
inactive

How was `OCCOCCN1CCN(c2nc(N3CCCC3)c3nc(Cl)c(NCc4ccccc4)nc3n2)CC1` classified in this test?
inactive

Tell me the assay call for `O=C1C=CC(=O)c2c(O)nc(CBr)nc21` please.
inactive

Outcome logged for `Cc1ccc(C(=O)Cn2c(C(=O)/C=C/c3cccs3)nc3ccccc32)cc1` in this assay:
inactive
